Provide the recorded half-life for the entries that follow.
# protocol details: Half life in rat at 2 mg/kg, iv
# Type: ADME, organism-based
# Set-up: dose 2 mg/kg, route intravenous
# assay context: in vivo
Answers are plain numbers, in h.

CCNCc1cncc(-c2cnc3n[nH]c(-c4nc5ccc(F)cc5[nH]4)c3c2)c1 :: 16.1

// below: half-life requested for another compound
IN: Reported half-life for `CN1CCN(c2ccc3[nH]c(-c4n[nH]c5ncc(-c6cncc7ccccc67)cc45)nc3c2)CC1` : what is it?
OUT: 0.73

---

Consider the following molecules; for each one, report its solubility.
# protocol details: Solubility in 20% hydroxyl propyl beta-cyclodextrin
# Format: physicochemical
# assay context: 20% hydroxypropyl beta-cyclodextrin solution
Numbers only, in mg/mL.

Sample answers from the record:
CCNCc1cncc(-c2cnc3n[nH]c(-c4nc5ccc(F)cc5[nH]4)c3c2)c1 :: 12.5
CCNCc1cncc(-c2cnc3[nH]nc(-c4nc5cc(OC)ccc5[nH]4)c3c2)c1 :: 12.5
CNCc1cncc(-c2cnc3[nH]nc(-c4nc5cc(OC(F)(F)F)ccc5[nH]4)c3c2)c1 :: 12.5

Provide each entry's solubility from the list below.
1. CCCNCc1cncc(-c2cnc3[nH]nc(-c4nc5c(COC)cccc5[nH]4)c3c2)c1
2. CCNCc1cncc(-c2cnc3[nH]nc(-c4nc5cc(F)c(F)cc5[nH]4)c3c2)c1
3. CCNCc1cncc(-c2cnc3[nH]nc(-c4nc5cc(N6CCN(C)CC6)ccc5[nH]4)c3c2)c1

OUT:
12.5
12.5
12.5

---

# protocol details: Cmax in rat at 10 mg/kg, po
# Format: ADME, organism-based
# Design: dose 10 mg/kg, route oral
# assay context: in vivo
outcome measure: Cmax (ng/mL)
Numbers only, in ng/mL.

CCNCc1cncc(-c2cnc3n[nH]c(-c4nc5ccc(F)cc5[nH]4)c3c2)c1 :: 3.8

Shifting focus to the molecule that follows.
IN: Sample `CN1CCN(c2ccc3[nH]c(-c4n[nH]c5ncc(-c6cncc7ccccc67)cc45)nc3c2)CC1` — what was its Cmax?
OUT: 65

---

# Tested on: HCT-116
# protocol details: cells
# assay context: Homo sapiens
For each of the compounds below, state its pIC50.
Give bare numbers, as −log10 of the molar value.

Examples with answers:
COCc1cccc2[nH]c(-c3nn(C)c4ncc(-c5cncc6ccccc56)cc34)nc12 :: 6.70
c1ccc2c(-c3cnc4[nH]nc(-c5nc6cc(N7CCOCC7)ccc6[nH]5)c4c3)cncc2c1 :: 6.43
COCc1cccc2[nH]c(-c3n[nH]c4ncc(-c5cccnc5)cc34)nc12 :: 7.72

The following compounds each have a reported value; give each one's pIC50.
1. Cc1cccc2[nH]c(-c3n[nH]c4ncc(-c5cncc6ccccc56)cc34)nc12
2. c1ccc2c(-c3cnc4[nH]nc(-c5nc6ccccc6[nH]5)c4c3)cncc2c1
3. CNCc1cncc(-c2cnc3[nH]nc(-c4nc5cc(OC(F)(F)F)ccc5[nH]4)c3c2)c1
4. CCNCc1cncc(-c2cnc3[nH]nc(-c4nc5cc(F)c(F)cc5[nH]4)c3c2)c1
5. CC(C)NC(=O)c1cccc2[nH]c(-c3n[nH]c4ncc(-c5cncc6ccccc56)cc34)nc12
6. CCNCc1cncc(-c2cnc3[nH]nc(-c4nc5cc(N6CCN(C)CC6)ccc5[nH]4)c3c2)c1

OUT:
[5.79, 6.26, 7.26, 7.02, 7.38, 6.27]

---

# protocol details: Clearance in rat at 2 mg/kg, iv
# Assay type: ADME, organism-based
# Parameters: dose 2 mg/kg, route intravenous
# assay context: in vivo
outcome measure: clearance (mL/min/kg)
One number for each entry, in mL/min/kg.

IN: Which value of clearance has been reported for `CN1CCN(c2ccc3[nH]c(-c4n[nH]c5ncc(-c6cncc7ccccc67)cc45)nc3c2)CC1` in the records?
OUT: 34.9

---

# System: HCT-116
# protocol details: cells
# assay context: Homo sapiens
Provide the reported log10 of IC50 of each item.
Heads up, the numbers here are log10 of IC50 in nM units.

CCNCc1cncc(-c2cnc3n[nH]c(-c4nc5ccc(F)cc5[nH]4)c3c2)c1 :: 1.97
CCNCc1cncc(-c2cnc3[nH]nc(-c4nc5cc(OC)ccc5[nH]4)c3c2)c1 :: 1.69
CN1CCN(c2ccc3[nH]c(-c4n[nH]c5ncc(-c6cncc7ccccc67)cc45)nc3c2)CC1 :: 2.56
CC(C)NCc1cccc2[nH]c(-c3n[nH]c4ncc(-c5cncc6ccccc56)cc34)nc12 :: 2.04
CCN(CC)C(=O)c1cccc2[nH]c(-c3n[nH]c4ncc(-c5cncc6ccccc56)cc34)nc12 :: 1.74

I'm hoping you can list log10 of IC50 for every molecule here, please.
1. COCc1cccc2[nH]c(-c3n[nH]c4ncc(-c5cncc6ccccc56)cc34)nc12
2. OCc1cccc2[nH]c(-c3n[nH]c4ncc(-c5cncc6ccccc56)cc34)nc12
3. COCc1cccc2[nH]c(-c3n[nH]c4ncc(-c5cncnc5)cc34)nc12

OUT:
[1.00, 2.95, 2.52]

---

Data export: IC50 values recorded with Vascular endothelial growth factor receptor 2 (Homo sapiens, UniProt P35968).
Sequence (P35968 whole entry): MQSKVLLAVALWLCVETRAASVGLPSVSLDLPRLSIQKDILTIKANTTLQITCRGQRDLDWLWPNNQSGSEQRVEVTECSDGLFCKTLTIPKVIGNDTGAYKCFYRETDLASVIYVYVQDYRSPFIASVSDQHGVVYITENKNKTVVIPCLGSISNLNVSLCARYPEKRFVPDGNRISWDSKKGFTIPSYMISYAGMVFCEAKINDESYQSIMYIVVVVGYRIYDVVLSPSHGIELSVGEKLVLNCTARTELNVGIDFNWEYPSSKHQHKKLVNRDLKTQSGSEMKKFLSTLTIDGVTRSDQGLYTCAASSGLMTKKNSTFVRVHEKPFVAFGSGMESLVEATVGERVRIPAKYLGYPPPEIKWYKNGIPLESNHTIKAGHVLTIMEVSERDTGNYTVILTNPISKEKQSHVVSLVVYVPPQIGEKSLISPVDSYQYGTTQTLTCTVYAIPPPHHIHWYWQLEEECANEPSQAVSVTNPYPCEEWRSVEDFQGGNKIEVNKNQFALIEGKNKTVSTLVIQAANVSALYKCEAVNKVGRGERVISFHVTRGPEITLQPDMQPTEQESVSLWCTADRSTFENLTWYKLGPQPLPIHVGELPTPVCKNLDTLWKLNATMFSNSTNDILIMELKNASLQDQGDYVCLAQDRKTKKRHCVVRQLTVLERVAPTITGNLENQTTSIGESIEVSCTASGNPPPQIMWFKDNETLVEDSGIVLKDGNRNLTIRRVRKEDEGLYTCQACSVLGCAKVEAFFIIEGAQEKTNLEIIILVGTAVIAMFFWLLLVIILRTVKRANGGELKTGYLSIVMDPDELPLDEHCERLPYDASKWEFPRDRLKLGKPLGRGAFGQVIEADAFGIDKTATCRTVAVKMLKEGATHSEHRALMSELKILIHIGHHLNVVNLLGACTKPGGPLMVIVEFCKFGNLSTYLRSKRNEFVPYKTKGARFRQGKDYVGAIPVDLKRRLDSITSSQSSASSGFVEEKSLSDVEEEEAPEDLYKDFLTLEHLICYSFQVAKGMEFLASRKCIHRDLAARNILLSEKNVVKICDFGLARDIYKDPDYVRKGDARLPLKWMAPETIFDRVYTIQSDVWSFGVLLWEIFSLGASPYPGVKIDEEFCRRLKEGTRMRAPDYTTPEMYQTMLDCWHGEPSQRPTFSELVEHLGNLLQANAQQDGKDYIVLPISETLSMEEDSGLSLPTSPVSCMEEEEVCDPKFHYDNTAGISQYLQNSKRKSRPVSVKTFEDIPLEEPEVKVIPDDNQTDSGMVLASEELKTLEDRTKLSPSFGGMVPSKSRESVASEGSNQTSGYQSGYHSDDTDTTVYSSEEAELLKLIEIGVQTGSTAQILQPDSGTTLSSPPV
One number for each entry, in µM.

Example entries begin here.
CCN(CC)Cc1cccc2[nH]c(-c3n[nH]c4ncc(-c5cncc6ccccc56)cc34)nc12 :: 1.55
COCc1cccc2[nH]c(-c3n[nH]c4ncc(-c5cncc6ccccc56)cc34)nc12 :: 0.46
CCNCc1cncc(-c2cnc3n[nH]c(-c4nc5ccc(F)cc5[nH]4)c3c2)c1 :: 0.15
CCNCc1cncc(-c2cnc3[nH]nc(-c4nc5cc(N6CCN(C)CC6)ccc5[nH]4)c3c2)c1 :: 0.025
CC(C)OCc1cccc2[nH]c(-c3n[nH]c4ncc(-c5cncc6ccccc56)cc34)nc12 :: 0.1

List reported IC50 for each of these compounds:
1. CCNCc1cncc(-c2cnc3[nH]nc(-c4nc5cc(F)c(F)cc5[nH]4)c3c2)c1
2. CCNCc1cncc(-c2cnc3[nH]nc(-c4nc5c(COC)cccc5[nH]4)c3c2)c1C

OUT:
1: 0.1; 2: 4.67

Please supply IC50 for each of the following items, keeping them in order.
1. c1ccc2c(-c3cnc4[nH]nc(-c5nc6cc(N7CCOCC7)ccc6[nH]5)c4c3)cncc2c1
2. COCc1cccc2[nH]c(-c3n[nH]c4ncc(-c5cncnc5)cc34)nc12

OUT:
1. 1.07
2. 0.11

---

Give measured pIC50 for each item. Keep answers brief.
# measured target: UniProt P06493
# Sequence (P06493 whole entry): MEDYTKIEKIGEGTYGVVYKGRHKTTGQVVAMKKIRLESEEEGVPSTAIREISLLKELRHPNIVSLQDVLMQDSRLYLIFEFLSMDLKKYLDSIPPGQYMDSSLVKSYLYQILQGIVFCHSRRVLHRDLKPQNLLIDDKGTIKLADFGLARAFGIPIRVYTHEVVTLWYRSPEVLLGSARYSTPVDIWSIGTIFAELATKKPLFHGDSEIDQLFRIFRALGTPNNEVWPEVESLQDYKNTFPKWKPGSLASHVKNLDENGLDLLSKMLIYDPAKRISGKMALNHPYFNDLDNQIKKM
Numbers only, as −log10 of the molar value.

// each listed compound needs a value for pIC50
1. CN1CCN(c2ccc3[nH]c(-c4n[nH]c5ncc(-c6cncc7ccccc67)cc45)nc3c2)CC1
2. CNCc1cncc(-c2cnc3[nH]nc(-c4nc5cc(OC(F)(F)F)ccc5[nH]4)c3c2)c1
3. CCNCc1cncc(-c2cnc3[nH]nc(-c4nc5cc(N6CCN(C)CC6)ccc5[nH]4)c3c2)c1
4. CCN(CC)Cc1cccc2[nH]c(-c3n[nH]c4ncc(-c5cncc6ccccc56)cc34)nc12
5. c1ccc2c(-c3cnc4[nH]nc(-c5nc6ccccc6[nH]5)c4c3)cncc2c1
6. CC(C)NC(=O)c1cccc2[nH]c(-c3n[nH]c4ncc(-c5cncc6ccccc56)cc34)nc12

OUT:
7.85
8.05
8.52
8.74
7.64
7.41

Hello, I would appreciate it if you could give pIC50 for each entry below.
1. CNCc1cncc(-c2cnc3[nH]nc(-c4nc5c(COC)cccc5[nH]4)c3c2)c1
2. CCNCc1cncc(-c2cnc3[nH]nc(-c4nc5c(COC)cccc5[nH]4)c3c2)c1C
3. COCc1cccc2[nH]c(-c3n[nH]c4ncc(-c5cccnc5)cc34)nc12
4. CC(C)NCc1cccc2[nH]c(-c3n[nH]c4ncc(-c5cncc6ccccc56)cc34)nc12

OUT:
[8.60, 6.96, 7.54, 7.89]

---

# protocol details: AUC in rat at 10 mg/kg, po
# Format: ADME, organism-based
# Parameters: dose 10 mg/kg, route oral
# assay context: plasma
outcome measure: AUC (ng·h/mL)
Answers are plain numbers, in ng·h/mL.

CN1CCN(c2ccc3[nH]c(-c4n[nH]c5ncc(-c6cncc7ccccc67)cc45)nc3c2)CC1 :: 173

// next item, AUC requested
IN: Given the entry `CCNCc1cncc(-c2cnc3n[nH]c(-c4nc5ccc(F)cc5[nH]4)c3c2)c1` , report its measured AUC.
OUT: 150

---

# measured target: UniProt P04626
# Sequence (P04626 whole entry): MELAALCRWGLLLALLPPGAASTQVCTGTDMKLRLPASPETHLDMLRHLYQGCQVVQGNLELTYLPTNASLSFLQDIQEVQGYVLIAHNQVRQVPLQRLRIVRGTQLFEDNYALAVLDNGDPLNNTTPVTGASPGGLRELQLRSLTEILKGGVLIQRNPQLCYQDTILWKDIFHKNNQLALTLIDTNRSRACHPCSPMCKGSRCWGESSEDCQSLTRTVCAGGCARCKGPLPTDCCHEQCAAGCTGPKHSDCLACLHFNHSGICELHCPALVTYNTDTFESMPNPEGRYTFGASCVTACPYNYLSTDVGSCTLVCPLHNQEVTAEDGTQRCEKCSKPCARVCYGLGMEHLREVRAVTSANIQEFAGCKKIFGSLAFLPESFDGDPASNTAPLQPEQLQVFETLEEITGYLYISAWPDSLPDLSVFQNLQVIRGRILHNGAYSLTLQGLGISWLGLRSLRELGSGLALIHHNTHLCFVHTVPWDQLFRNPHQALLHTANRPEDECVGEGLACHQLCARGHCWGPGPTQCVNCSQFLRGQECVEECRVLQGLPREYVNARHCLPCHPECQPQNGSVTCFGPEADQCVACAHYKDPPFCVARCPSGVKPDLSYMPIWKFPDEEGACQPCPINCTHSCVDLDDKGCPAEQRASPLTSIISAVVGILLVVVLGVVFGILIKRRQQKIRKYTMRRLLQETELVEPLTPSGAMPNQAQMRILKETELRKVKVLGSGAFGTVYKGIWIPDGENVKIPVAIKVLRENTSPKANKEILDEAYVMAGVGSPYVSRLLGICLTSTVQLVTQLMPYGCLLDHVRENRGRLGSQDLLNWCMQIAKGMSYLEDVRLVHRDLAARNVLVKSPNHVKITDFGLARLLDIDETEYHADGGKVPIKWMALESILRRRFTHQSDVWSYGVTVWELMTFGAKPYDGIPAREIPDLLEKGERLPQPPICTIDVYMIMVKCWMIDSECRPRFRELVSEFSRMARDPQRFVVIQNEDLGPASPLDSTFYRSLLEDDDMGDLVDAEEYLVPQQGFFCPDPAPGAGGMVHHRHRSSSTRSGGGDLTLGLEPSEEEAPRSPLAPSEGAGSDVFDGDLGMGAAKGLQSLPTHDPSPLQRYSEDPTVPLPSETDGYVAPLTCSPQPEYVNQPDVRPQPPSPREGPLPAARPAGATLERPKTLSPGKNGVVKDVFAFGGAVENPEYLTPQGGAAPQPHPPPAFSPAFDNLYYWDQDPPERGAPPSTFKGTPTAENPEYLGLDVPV
outcome measure: pIC50
Give bare numbers, as −log10 of the molar value.

IN: Entry `OCc1cccc2[nH]c(-c3n[nH]c4ncc(-c5cncc6ccccc56)cc34)nc12` : reported pIC50 = ?
OUT: 6.62

---

# protocol details: Oral bioavailability in rat at 10 mg/kg
# Type: ADME, organism-based
# assay context: in vivo
Exercise: state measured bioavailability for each of the compounds provided.
One number for each entry, in %.

CN1CCN(c2ccc3[nH]c(-c4n[nH]c5ncc(-c6cncc7ccccc67)cc45)nc3c2)CC1 :: 4

IN: Which bioavailability is listed for `CCNCc1cncc(-c2cnc3n[nH]c(-c4nc5ccc(F)cc5[nH]4)c3c2)c1` ?
OUT: 8
